Task for the reader: assign each of the following compounds its reported CC50.
measurementProtocol: Cytotoxicity against human HTB-54 cells after 72 hrs by MTT assay
Assay type: functional
measurementConditions: HTB-54, 72 h, read-out: LC50 (the source's name)

Here's what some known entries look like.
CSc1ccc(CNc2nc(SC)nc3ncccc23)cc1
63.6 µM
CSc1nc(Nc2ccccc2)c2ccccc2n1
> 100 µM
[SeH]c1nc([SeH])c2ccccc2n1
> 100 µM
CSc1nc(NCc2ccc([Se]C)cc2)c2ccccc2n1
> 100 µM
COc1ccc(CNc2nc(SC)nc3ccccc23)cc1
> 100 µM

// input: 2 compounds below; output: CC50 for each
1. CSc1ccc(CNc2nc(SC)nc3ccccc23)cc1
2. CSc1ccc(CNc2nc([SeH])nc3ccccc23)cc1

Key:
["89.1 µM", "> 100 µM"]

---

System: MCF7
measurementProtocol: Cell cycle arrest in human MCF7 cells assessed as accumulation at G2/M phase at 15 uM after 12 hrs by propidium iodide staining-based flow cytometric analysis (reference value: 22.11 +/- 3.86%)
Type: functional
Assignment: determine reported Activity for the given compounds.
Please answer using the number first and the unit second.

Solved cases below.
[SeH]c1nc([SeH])c2ccccc2n1
25.63%
CSc1ccc(CNc2nc(SC)nc3ncccc23)cc1
22.99%
CC[C@@]1(O)C(=O)OCc2c1cc1n(c2=O)Cc2cc3ccccc3nc2-1
20.21%

We now examine a further compound.
Exercise: Write down measured Activity (MCF7) for this compound. CCCCC[Se]c1nc(NCc2ccccc2)c2ccccc2n1
Key: 25.83%

---

Assign Activity to each entry below.
Test system: MCF7
measurementProtocol: Cell cycle arrest in human MCF7 cells assessed as accumulation at subG1 phase at 15 uM after 4 hrs by propidium iodide staining-based flow cytometric analysis (reference value: 5.90 +/- 1.36%)
Format: functional
State the value with its unit after it.

CC[C@@]1(O)C(=O)OCc2c1cc1n(c2=O)Cc2cc3ccccc3nc2-1 [CAMPTOTHECIN]
5.39%

Record Activity for all entries; do not skip any.
1. CSc1ccc(CNc2nc(SC)nc3ncccc23)cc1
2. CCCCC[Se]c1nc(NCc2ccccc2)c2ccccc2n1

Key:
3.88%
4.42%

Exercise: Give a short answer stating reported Activity for [SeH]c1nc([SeH])c2ccccc2n1 .
Key: 3.98%

---

Test system: MCF7
measurementProtocol: Cytotoxicity against human MCF7 cells after 72 hrs by MTT assay
Format: functional
measurementConditions: MCF7, 72 h
measure: LC50

COc1ccc(CNc2nc(SC)nc3ncccc23)cc1
> 100 µM
[SeH]c1nc(NCc2ccccc2)c2cccnc2n1
> 100 µM
CSc1nc(NCc2ccccc2)c2cccnc2n1
> 100 µM
[SeH]c1nc(NCc2ccccc2)c2ccccc2n1
> 100 µM

Need LC50 for each of these compounds.
1. Sc1nc(NCc2ccccc2)c2ccccc2n1
2. CCCCC[Se]c1nc(NCc2ccc(SC)cc2)c2ccccc2n1
3. CCCCC[Se]c1nc(N)c2ccccc2n1

Key:
1: > 100 µM; 2: 95.3 µM; 3: 90.4 µM

---

measurementProtocol: Cytotoxicity against human BEAS2B cells after 72 hrs by MTT assay
Format: cell-based, BEAS-2B
measurementConditions: BEAS2B cells
Threshold 20 µM. GI50 at 72 h below it: True. GI50 at 72 h at it or above: False.

Reference set, count: 3
COc1ccc(CNc2nc(S)nc3ccccc23)cc1
True
CSc1ccc(CNc2nc(SC)nc3ccccc23)cc1
False
COc1ccc(CNc2nc([SeH])nc3ccccc23)cc1
False

Exercise: Report whether reported GI50 at 72 h is lower than 20 µM (strictly) for C[Se]c1nc(N)c2cccnc2n1
Key: False

Exercise: # check: GI50 at 72 h < 20 µM for COc1ccc(CNc2nc(SC)nc3ccccc23)cc1
Key: False

Exercise: Quick check: does [SeH]c1nc(NCc2ccccc2)c2cccnc2n1 have GI50 at 72 h under 20 µM?
Key: True

Exercise: Determine if CCCCCSc1nc(NCc2ccc([Se]C)cc2)c2ccccc2n1 shows GI50 at 72 h strictly lower than 20 µM.
Key: False

---

System: HT-29
measurementProtocol: Cytotoxicity against human HT-29 cells after 72 hrs by MTT assay
Type: functional
measurementConditions: HT-29, 72 h
measure: TGI

Use the examples below as a reference point.
CSc1nc(NCc2ccc([Se]C)cc2)c2ccccc2n1
> 100 µM
Sc1nc(NCc2ccccc2)c2ccccc2n1
63.5 µM
CCCCC[Se]c1nc(NCc2ccc(SC)cc2)c2ccccc2n1
> 100 µM

State recorded TGI for all listed molecules.
1. C[Se]c1nc([Se]C)c2ccccc2n1
2. Nc1nc([SeH])nc2ccccc12
3. [SeH]c1nc(NCc2ccccc2)c2cccnc2n1
4. CSc1nc(NCCCCc2ccccc2)c2ccccc2n1
5. CSc1nc(NCCCCCO)c2cccnc2n1
6. CSc1ccc(CNc2nc([Se]C)nc3ccccc23)cc1
7. CCCCC[Se]c1nc(N)c2cccnc2n1
8. CCCCC[Se]c1nc([Se]CCCCC)c2cccnc2n1

Key:
["33.8 µM", "> 100 µM", "33.1 µM", "> 100 µM", "> 100 µM", "> 100 µM", "20 µM", "> 100 µM"]

Batch: TGI for all items listed.
1. CSc1ccc(CNc2nc([SeH])nc3ccccc23)cc1
2. CSc1nc(NCCc2ccccc2)c2ccccc2n1
3. CSc1ccc(CNc2nc(SC)nc3ccccc23)cc1
4. [Se]=C=NCc1ccccc1 [BENZYLISOSELENOCYANATE]
5. CSc1nc(NCc2ccccc2)c2cccnc2n1
6. [SeH]c1nc([SeH])c2ccccc2n1
7. CSc1nc(Nc2ccccc2)c2ccccc2n1

Key:
["> 100 µM", "87.4 µM", "> 100 µM", "44.5 µM", "> 100 µM", "45.2 µM", "> 100 µM"]

# map each molecule to its TGI
1. COc1cc([C@@H]2c3cc4c(cc3[C@@H](O[C@@H]3O[C@@H]5CO[C@@H](C)O[C@H]5[C@H](O)[C@H]3O)[C@H]3COC(=O)[C@H]23)OCO4)cc(OC)c1O [ETOPOSIDE]
2. CSc1nc(NCCCc2ccccc2)c2ccccc2n1
3. CCCCC[Se]c1nc(NCc2ccccc2)c2ccccc2n1

Key:
> 100 µM
89.5 µM
> 100 µM

Here are 2 molecules. What values of TGI were reported for them?
1. COc1ccc(CNc2nc([SeH])nc3ccccc23)cc1
2. COc1ccc(CNc2nc(SC)nc3ccccc23)cc1

Key:
["> 100 µM", "> 100 µM"]

Return reported TGI values for all items listed beneath this line.
1. C[Se]c1nc(N)c2cccnc2n1
2. CSc1nc(NCc2ccccc2)c2ccccc2n1

Key:
1. 77.3 µM
2. > 100 µM

---

For each record, write down the corresponding LC50.
measurementProtocol: Cytotoxicity against human 184B5 cells after 72 hrs by MTT assay
Assay type: cell-based
measurementConditions: 184b5, 72 h

CCCCC[Se]c1nc(N)c2ccccc2n1
71.85 µM
[SeH]c1nc([SeH])c2cccnc2n1
67.5 µM

Give LC50 for each listed item.
1. C[Se]c1nc(N)c2ccccc2n1
2. CSc1nc(NCc2ccccc2)c2cccnc2n1
3. CCCCC[Se]c1nc(N)c2cccnc2n1
4. CSc1nc(NCCCCCO)c2cccnc2n1
5. CSc1nc(Nc2ccccc2)c2ccccc2n1
6. COc1ccc(CNc2nc([Se]C)nc3ccccc23)cc1
7. CCCCC[Se]c1nc([Se]CCCCC)c2cccnc2n1
8. CCCCCSc1nc(NCc2ccc([Se]C)cc2)c2ccccc2n1

Key:
["93.68 µM", "> 100 µM", "70.14 µM", "> 100 µM", "> 100 µM", "> 100 µM", "> 100 µM", "> 100 µM"]

Exercise: Quick one: give measured LC50 for CSc1nc(NCCCCCO)c2ccccc2n1
Key: > 100 µM

---

Test system: MCF7
measurementProtocol: Cell cycle arrest in human MCF7 cells assessed as accumulation at subG1 phase at 15 uM after 24 hrs by propidium iodide staining-based flow cytometric analysis (reference value: 2.93 +/- 0.54%)
Type: functional
Consider the following molecules; for each one, report its Activity.
Numbers only, in %.

For every item in the list below, what is its measured Activity?
1. CSc1ccc(CNc2nc(SC)nc3ncccc23)cc1
2. [SeH]c1nc([SeH])c2ccccc2n1
3. CCCCC[Se]c1nc(NCc2ccccc2)c2ccccc2n1
4. CC[C@@]1(O)C(=O)OCc2c1cc1n(c2=O)Cc2cc3ccccc3nc2-1

Key:
2.97
3.46
3.28
3.05

---

System: HT-29
measurementProtocol: Cytotoxicity against human HT-29 cells after 72 hrs by MTT assay
Format: functional
measurementConditions: HT-29, 72 h
measure: TGI

Reference set (5 entries):
C[Se]c1nc(N)c2ccccc2n1
74.8 µM
CCCCCSc1nc(O)c2ccccc2n1
> 100 µM
Nc1nc([SeH])nc2ncccc12
89.6 µM
CSc1nc(NCCCCCO)c2ccccc2n1
> 100 µM
CSc1ccc(CNc2nc(SC)nc3ncccc23)cc1
7.03 µM

Give measured TGI for every item shown.
1. COc1ccc(CNc2nc(SC)nc3ncccc23)cc1
2. [SeH]c1nc(NCc2ccccc2)c2ccccc2n1
3. CCCCC[Se]c1nc([Se]CCCCC)c2ccccc2n1
4. CCCCC[Se]c1nc(N)c2ccccc2n1
5. COc1ccc(CNc2nc([Se]C)nc3ccccc23)cc1
6. C[Se]c1nc(NCc2ccccc2)c2ccccc2n1

Key:
["> 100 µM", "> 100 µM", "> 100 µM", "> 100 µM", "> 100 µM", "81 µM"]

Batch: TGI for all items listed.
1. CCCCCSc1nc(NCc2ccc([Se]C)cc2)c2ccccc2n1
2. COc1ccc(CNc2nc(S)nc3ccccc23)cc1

Key:
> 100 µM
28.6 µM
